subject-of-test: Melanocortin receptor 4 (Homo sapiens) (UniProt P32245)
Sequence (P32245 whole entry, looked up): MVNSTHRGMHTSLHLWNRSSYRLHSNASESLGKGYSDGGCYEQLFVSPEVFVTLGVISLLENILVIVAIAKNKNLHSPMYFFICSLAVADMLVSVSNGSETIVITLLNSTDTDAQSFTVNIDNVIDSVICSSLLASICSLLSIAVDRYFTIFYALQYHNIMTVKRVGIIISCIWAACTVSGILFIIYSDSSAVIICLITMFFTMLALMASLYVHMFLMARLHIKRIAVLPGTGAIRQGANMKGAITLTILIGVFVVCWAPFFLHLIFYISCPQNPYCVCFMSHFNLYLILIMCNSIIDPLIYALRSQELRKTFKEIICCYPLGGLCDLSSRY
procedure-details: activators of MC4R beta-arrestin recruitment – cell-based, luminescence, agonist arm of biased-ligand search, primary screen (AID 540308)
test-context: U2OS MC4R beta-arrestin complementation, at 8.9 µM, percent of melanotan II response, DMSO zero
The whole screen tested about 360,000 compounds, of which about 3,500 (0.97%) were called active.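 How the source made its calls: active means activation above a per-plate cutoff, the mean activation of sample wells on that plate plus 3 SD (cut at about 8% in these data); inactive means the rest.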 The entries come from a sample that favours actives as a whole.
Permitted responses: active, inactive

Exercise: State the result this test recorded for COc1cc(Cn2c3ccc(NC(=O)CC(C)c4ccccc4)cc3c(=O)n2C)ccc1F (stereo unspecified) .
Solution: inactive

Exercise: State the result this test recorded for `CC(=O)c1cccc(-c2cnc3c(NC=O)cc(-c4ccc(N5CCN(C)CC5)cc4)cn23)c1` .
Solution: inactive

Exercise: State the result this test recorded for `Cc1ccc(CCC(=O)Nc2ncc(Cc3cc(Cl)ccc3Cl)s2)o1` .
Solution: active

Exercise: State the result this test recorded for `CN(C)CCNC(=O)c1cccc(-c2cnc3c(NC=O)cc(-c4cccc(C(F)(F)F)c4)cn23)c1` .
Solution: active

Exercise: State the result this test recorded for COCc1cccc(-c2csc(C(O)c3ccc(F)cc3)n2)c1 (stereo unspecified) .
Solution: inactive

Exercise: State the result this test recorded for `CC(=O)c1ccc(-c2cnc3c(NC=O)cc(-c4cccc(NS(C)(=O)=O)c4)cn23)cc1` .
Solution: inactive

Exercise: State the result this test recorded for `CCCOc1ccc(F)cc1-c1cc(C(=O)Nc2ccc(F)cc2)[nH]n1` .
Solution: inactive

Exercise: State the result this test recorded for `CC(=O)c1cccc(-c2cnc3c(NC=O)cc(-c4ccc(N(C)C)cc4)cn23)c1` .
Solution: active

Exercise: State the result this test recorded for CC(OC(=O)c1cccc(S(=O)(=O)N2CCOCC2)c1)C(=O)NCC1CCCCC1 (stereo unspecified) .
Solution: inactive

Exercise: State the result this test recorded for CCNC(=O)C1(C)CCCN(Cc2noc(-c3ccccc3OC)n2)C1 (stereo unspecified) .
Solution: inactive

Exercise: State the result this test recorded for `Cc1nc2c(OCc3ccc(Cl)cc3Cl)cccn2c1N(C)CC1CC1` .
Solution: inactive

Exercise: State the result this test recorded for `COCCNc1ncnc2c1ncn2[C@H]1CN(Cc2ccc(OC)cc2)C[C@@H](CO)O1` .
Solution: inactive

Exercise: State the result this test recorded for `CCOC(=O)c1c(-c2ccc(C)cc2C)csc1NC(=O)CSc1nnnn1C` .
Solution: active

Exercise: State the result this test recorded for `O=C(CCc1ccccc1Cl)Nc1ccc(S(=O)(=O)Nc2nccs2)cc1` .
Solution: inactive

Exercise: State the result this test recorded for `COc1ccc(-c2cc(NC=O)c3ncc(-c4cc(OC)c(OC)c(OC)c4)n3c2)c(OC)c1` .
Solution: inactive

Exercise: State the result this test recorded for CC1(C(=O)Nc2ccccc2Br)CCN1C(=O)CC1CC1 (stereo unspecified) .
Solution: inactive

Exercise: State the result this test recorded for CC(OC(=O)c1ccc([N+](=O)[O-])cc1)C(=O)NCC1CCCCC1 (stereo unspecified) .
Solution: inactive

Exercise: State the result this test recorded for COc1cc(C(=O)OC(C)C(=O)NCC2CCCCC2)cc(NC(=O)c2ccco2)c1OC (stereo unspecified) .
Solution: active

Exercise: State the result this test recorded for `Cn1nnnc1SCC(=O)Nc1sccc1C(N)=O` .
Solution: inactive

Exercise: State the result this test recorded for `CN(C)C(=O)c1cccc(-c2cnc3c(NC=O)cc(-c4ccc(C(=O)N5CCOCC5)cc4)cn23)c1` .
Solution: inactive

Exercise: State the result this test recorded for `Cc1ccc(Cc2cnc(N)s2)o1` .
Solution: inactive

---

subject-of-test: Melanocortin receptor 4 (Homo sapiens) (UniProt P32245)
procedure-details: activators of MC4R beta-arrestin recruitment – cell-based, luminescence, agonist arm of biased-ligand search, primary screen (AID 540308)
test-context: U2OS MC4R beta-arrestin complementation, at 8.9 µM, active compounds read high, percent of melanotan II response, DMSO zero
Screen size: about 360,000 compounds; about 3,500 (0.97%) were called active. This excerpt belongs to a sample that is enriched for actives.
readout-type: activation (%)
Give a bare numeral; the unit % is implied.

Measured activation of `CNc1cncc(-c2cccc(C(=O)N3CCOCC3)c2)n1` : -2.12

Measured activation of `Cc1ccc2nc(-c3ccc(SCC(=O)Nc4cc(C)on4)nc3)[nH]c2c1` : -0.33

Measured activation of `CN(C)c1cccc(NC(=O)c2ccc(-c3ccc(F)c(F)c3)c3ccoc23)c1` : 0.91

Measured activation of `O=C(COC(=O)c1ccc[nH]c1=O)Nc1ccc2c(c1)OC(F)(F)O2` : -2.05

Measured activation of `OC[C@@H]1CN(Cc2cccs2)C[C@H](n2cnc3c(Nc4ccccc4)ncnc32)O1` : 0.44

Measured activation of `O=C(O)COc1ccc(/C=N/O)cc1Br` : -1.99

Measured activation of CCc1ccc2c(c1)NC(=O)C2(C)Cc1ccc(OC(F)(F)F)cc1 (stereo unspecified) : -0.4

Measured activation of `O=C(Nc1cccc(C(F)(F)F)c1)c1ccc(N2CCNCC2)c([N+](=O)[O-])c1` : -2.39

Measured activation of `CC(C)c1ccc2c(c1)c(SC(C)(C)C)c(CC(C)(C)C(=O)O)n2Cc1ccc(Cl)cc1` : 15.9

Measured activation of `O=C(COC(=O)CNC(=O)c1ccco1)Nc1ccc(F)cc1` : -0.58

Measured activation of Cc1cc(NC(=O)CSCC(=O)NC(C)c2ccccc2)no1 (stereo unspecified) : 3.59

Measured activation of `CCCOc1ccc(F)cc1-c1cc(C(=O)NCc2ccc(F)cc2)[nH]n1` : 0.57

Measured activation of CCCNC(=O)C1(C)CCN(C(=O)c2cc(F)ccc2C)C1 (stereo unspecified) : -0.94

Measured activation of Cc1ccc(CN2C(=O)CCC2C(=O)NCCCN2CCCCC2C)cc1 (stereo unspecified) : -0.33

Measured activation of `CCc1nc2c(OCCOc3ccccc3)cccn2c1N(C)C(=O)c1ccc(OC)cc1` : -0.76

Measured activation of `Cc1ccsc1/C=N/NC(=O)Cc1cc(=O)[nH][nH]1` : -1.77

Measured activation of `COC(=O)CSc1nnc(-c2cccnc2)o1` : -1.17

Measured activation of `COc1ccc(CCNC(=O)Nc2ccc3c(c2)c(=O)n(C)n3C)cc1OC` : 1.3

Measured activation of CCOC(=O)C1CCCN(C(=O)c2cccc3ccccc23)CC1 (stereo unspecified) : -0.59

Measured activation of `COc1ccc(/C=C2/SC(=O)N(CCCCCC(=O)Nc3ccccc3C(=O)O)C2=S)cc1` : -0.47

Measured activation of `Cc1ccc(Cn2c(C)c(C(=O)NCc3ccccc3C(F)(F)F)sc2=O)cc1` : 0.28

Measured activation of CC(C)CN1CCC1(C)C(=O)Nc1ccc(OC(F)F)cc1 (stereo unspecified) : 0.55

Measured activation of `O=C(O)c1ccccc1-c1cccc2nncn12` : 1.15

Measured activation of `Cc1ccsc1/C=N/Nc1ccc(Cl)nn1` : 12.3

Measured activation of C[C@H]([C@@H](O)[C@@H](O)[C@@H](C)C(C)(C)C)[C@H]1CC[C@H]2C3CC[C@H]4C[C@H](OS(=O)(=O)O)[C@@H](OS(=O)(=O)O)C[C@]4(C)[C@H]3CC[C@]12C (stereo partly specified) : 0.15

Measured activation of CC(C(=O)Nc1ccc(O)c(C(=O)O)c1)N1C(=O)/C(=C/c2cccs2)SC1=S (stereo unspecified) : -1.84

---

subject-of-test: Melanocortin receptor 4 (Homo sapiens)
procedure-details: activators of MC4R beta-arrestin recruitment – cell-based, luminescence, agonist arm of biased-ligand search, primary screen (AID 540308)
test-context: U2OS MC4R beta-arrestin complementation, at 8.9 µM, percent of melanotan II response, DMSO zero
Among all 360,000 compounds or so, about 3,500 (0.97%) were called active.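 Rule for the calls: active = activation above a per-plate cutoff, the mean activation of sample wells on that plate plus 3 SD (cut at about 8% in these data); inactive = the rest.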 The entries come from a sample that favours actives as a whole.
Permitted responses: true for active, false for inactive

Exercise: State the result this test recorded for `CN1C[C@@H](CO)O[C@@H](n2cnc3c(N4CCN(CCO)CC4)ncnc32)C1` .
Solution: false

Exercise: State the result this test recorded for CC1(C(=O)Nc2ccc3c(c2)OCCO3)CCN1C(=O)Cc1cc(F)ccc1F (stereo not given) .
Solution: false

Exercise: State the result this test recorded for `CCc1nc2c(OCCc3cccc(OC)c3)cccn2c1N(C)C(=O)c1ccc(C)cc1` .
Solution: false

Exercise: State the result this test recorded for `CC(=O)c1sc(NC(=O)CCCOc2ccccc2C)nc1C` .
Solution: true

Exercise: State the result this test recorded for COc1cccc(NC(=O)C2(C)CCN2Cc2ccccc2Cl)c1 (stereo not given) .
Solution: false

---

subject-of-test: Melanocortin receptor 4 (Homo sapiens)
procedure-details: activators of MC4R beta-arrestin recruitment – cell-based, luminescence, agonist arm of biased-ligand search, primary screen (AID 540308)
test-context: U2OS MC4R beta-arrestin complementation, at 8.9 µM, active compounds read high, percent of melanotan II response, DMSO zero
Among all 360,000 compounds or so, about 3,500 (0.97%) were called active. The entries come from a sample that favours actives as a whole.
Provide the recorded activation for the entries that follow.
Give a bare numeral; the unit % is implied.

Measured activation of `CNc1cc(-c2c(OC)cccc2OC)ncn1` : 0.41

Measured activation of `CCOC(=O)/C(C#N)=C/c1ccc(OCC(=O)Nc2ccccc2)c(OC)c1` : 8.67

Measured activation of `COc1cccc(-c2cc3nc(NCc4ccccc4OC)n(C)c(=O)c3s2)c1` : 6.31

Measured activation of CC1(C(=O)NS(=O)(=O)c2cccc(F)c2)CCN1C(=O)Cc1cc(F)ccc1F (stereo unspecified) : -0.76

Measured activation of Cc1noc(C)c1C(=O)N1CCC1(C)C(=O)NS(=O)(=O)c1ccc(C#N)cc1 (stereo unspecified) : -1.23

Measured activation of `COc1cc(C2C3=C(CCCC3=O)OC3=C2C(=O)CCC3)ccc1OCC(=O)Nc1ccccc1` : -1.3

Measured activation of `CCCc1c(C)nc2c(Br)cccc2c1Cl` : 0.46

Measured activation of CCNC(=O)C1(C)CCN(Cc2ccc(C(=O)OCC)o2)C1 (stereo unspecified) : -1.16

Measured activation of `COc1ccc(Nc2ncnc3sc(-c4ccccc4)cc23)c(OC)c1` : 10.6

Measured activation of `COCCCNC(=O)c1cccc2c(-c3ccc(O)c(OC)c3)coc12` : 0.52

Measured activation of `COc1ccccc1Nc1ncnc2c1oc1ccccc12` : 0.07
